Biological target: T1, MCSF (Homo sapiens, UniProt P09603)
T1 sequence (P09603 33-255 limits assumed): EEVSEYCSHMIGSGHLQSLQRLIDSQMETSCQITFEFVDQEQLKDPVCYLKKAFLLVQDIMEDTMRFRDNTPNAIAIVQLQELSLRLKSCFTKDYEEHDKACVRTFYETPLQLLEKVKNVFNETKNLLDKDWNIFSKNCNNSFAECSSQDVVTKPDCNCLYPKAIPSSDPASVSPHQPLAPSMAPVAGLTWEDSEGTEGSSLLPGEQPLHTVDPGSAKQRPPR
Assay: Biacore analysis of Human Engineered RX1 antibodies, M-CSF immobilized (Example 13)
Assay type: binding
Details: Table 11, 25° C.
Method: To determine the relative differences in the binding affinity of intact antibodies by Biacore analysis, M-CSF was immobilized onto CMS biosensor chip via amine coupling. 0.05 μg/ml M-CSF in 10 mM Na-Acetate pH 4.0 was injected at 1 μl/min for 5 minutes to achieve RL=6-12 RU. […] Kinetic and affinity constants were determined using Biaevaluation software with a 1:1 interaction model/global fit.

molecule: heRX1-2.G2: Human Engineered RX1: light chain Low Risk (Kabat), heavy chain Low + Mod Risk (Kabat), Gamma 2 (antibody, left off: a dimerising Fc or GST) heavy: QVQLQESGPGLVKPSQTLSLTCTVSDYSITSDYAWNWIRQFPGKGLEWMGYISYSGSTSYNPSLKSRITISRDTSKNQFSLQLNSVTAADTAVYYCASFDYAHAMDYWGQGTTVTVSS light: EIVLTQSPGTLSVSPGERVTFSCRASQSIGTSIHWYQQKTGQSPRLLIKYASERISGIPDRFSGSGSGTDFTLTISRVESEDFADYYCQQINSWPTTFGQGTKLEIKRT
unit.info: M⁻¹ s⁻¹
ka: 218000
